# Test summary: Primary fluorescence-based thiol-reactive (MSTI) qHTS assay for identification of artifact compounds. (AID 1845221); further: nearly all actives have a fitted effect of over 65% in size
# Particulars: MSTI thiol-reactivity probe, 1 h; series mostly up to 53.8 µM
Records with an inconclusive call do not appear. The source made the active and inactive calls. The call rests on the fitted dose curve; in most records, active means well fitted inhibition curve with a large enough effect; inconclusive means small, poorly fitted or top-dose-only effect; inactive means no such curve, though single readings can be large or run the other way.
// one of T (active), F (inactive), no free text

Consider the following illustrative entries.
{"Compound": "CC(=O)OC[C@]12[C@H](OC(C)=O)[C@H](OC(=O)c3ccccc3)[C@@H]3[C@@H](OC(C)=O)[C@]1(OC3(C)C)[C@H](C)C[C@H](OC(=O)c1ccccc1)[C@@H]2OC(=O)c1ccccc1", "Class label": "F"}
{"Compound": "COC(=O)C1C(c2ccc(O)cc2)C(C(=O)O)C1c1ccc(O)cc1 (stereo not drawn)", "Class label": "F"}
{"Compound": "O=C(Nc1ccccc1)Nc1ccc(-c2ccc(C(=O)C3CCCC3C(=O)O)cc2)cc1 (stereo not drawn)", "Class label": "F"}
{"Compound": "C=C(C(=O)O)[C@@H]1CC[C@@]2(C)CC[C@@H](O)C(=C)C2C1 (stereo partly drawn)", "Class label": "T"}
{"Compound": "COc1cccc(CNc2ccc(S(=O)(=O)Nc3nc4ccccc4s3)cc2)c1O", "Class label": "F"}

*Q* What is the recorded call for this compound in the test? CCOc1ncc(S(=O)(=O)N2CCN(CC)CC2)cc1-c1nc2c(CC)n(CCOC)nc2c(=O)[nH]1
*A* F

*Q* What is the recorded call for this compound in the test? COc1ccc(/C=C/C(=O)O[C@@H]2[C@@H](OC(C)=O)[C@@H](OC(C)=O)[C@H](O[C@H]3[C@@H]4C=CO[C@@H](O[C@@H]5O[C@H](CO)[C@@H](O)[C@H](O)[C@H]5O)[C@@H]4[C@@]4(CO)O[C@@H]34)O[C@H]2C)cc1
*A* F

*Q* What is the recorded call for this compound in the test? CC1(C)C(=O)N2c3ccccc3C(O)(CC(C(=O)O)n3cnc4ccccc4c3=O)C2N1O (stereo not drawn)
*A* F

* * *

# Assay target: Guanidinoacetate N-methyltransferase (Homo sapiens) (UniProt Q14353)
# Test summary: Confirmatory Screen for Target Class Profiling of Small Molecule Inhibitors of Methyltransferases (AID 1745852); further: on the % scale 0 is the no-effect control and ±100 the full control effect
# Particulars: MTase-Glo luminescence, SAH detection, recombinant enzyme; at 57.3 µM (top of the series) unless noted
Assay readout: activity change, negative = inhibition (%)
Unit % implied. Number only.

Look over these answered cases.
{"Molecule": "CC1=CC(=O)C(=C(C)C)CC2C(C)(O)CCC12O (configuration not stated)", "activity change, negative = inhibition [%]": 0.373}
{"Molecule": "CC1=C2CC3C(CCC3(C)O)C(C)(O)CC2OC1=O (configuration not stated)", "activity change, negative = inhibition [%]": 0}
{"Molecule": "C=C(C(=O)O)[C@@H]1CC[C@H](C)[C@@H]2CC(=O)C(C)=C2C1", "activity change, negative = inhibition [%]": 1.33}
{"Molecule": "O=C(O)CC(CCc1ccccc1)OC1OC(CO)C(O)C(O)C1O (configuration not stated)", "activity change, negative = inhibition [%]": -3.69}
{"Molecule": "O=C(O)CCc1ccc(NCc2cccc3c2CCCN3CCOc2ccccc2)cc1F", "activity change, negative = inhibition [%]": -0.799}

Lookup result for O=c1[nH]ccc2nc(-c3ccc(CN4CCC(c5nc(-c6ccccn6)n[nH]5)CC4)cc3)c(-c3ccccc3)cc12 ; measured activity change, negative = inhibition: -7.59

Lookup result for CC(=O)NC(Cc1c[nH]c2ccccc(=O)c12)C(=O)O (configuration not stated) ; measured activity change, negative = inhibition: 0

Lookup result for CC(C)N(CCCNC(=O)Nc1ccc(C(C)(C)C)cc1)C[C@H]1O[C@@H](n2ccc3c(N)ncnc32)[C@H](O)[C@@H]1O ; measured activity change, negative = inhibition: -7.92

Lookup result for C=C(C(=O)O)[C@H]1C[C@]2(C)C(=O)CC[C@]23O[C@H]1C[C@@H]3C ; measured activity change, negative = inhibition: -1.21

Lookup result for C=C1CC/C=C(/CO)C(=O)C[C@@H]2[C@@H]1C[C@@]2(C)COC(C)=O ; measured activity change, negative = inhibition: 0

* * *

# System: HACAT
# Test summary: qHTS assay to identify novel small-molecules to repurpose for Merkel cell carcinoma treatment (AID 1296009); further: nearly all actives have a fitted effect of over 60% in size
# Particulars: MCC and control cell lines, CellTiter-Glo viability, 72 h; at 44.8 µM (top of the series) unless noted
Records with an inconclusive call do not appear. Calls of active or inactive are those of the source. The call rests on the fitted dose curve; in most records, active means well fitted inhibition curve with a large enough effect; inconclusive means small, poorly fitted or top-dose-only effect; inactive means flat fitted curve, though single readings scatter.
Assay readout: outcome

Look over these answered cases.
{"Compound": "CC1C2=CC(=O)OC2(O)CC2C1CCC1C(C)(C)CCC(O)C21C (stereo not given)", "Assay target": "HACAT", "outcome": "inactive"}
{"Compound": "CC(=O)OCC1=C[C@@H]2OC(=O)C3=CO[C@@H](O[C@@H]4O[C@H](CO)[C@@H](O)[C@H](O)[C@H]4O)[C@H]1[C@@H]32", "Assay target": "HACAT", "outcome": "inactive [at 17.4 µM]"}
{"Compound": "C/C=C/C=C/C=C/C(=O)N(C)C(C(=O)NC(C)C(=O)N1CCCC1C(N)=O)C(C)C (stereo not given)", "Assay target": "HACAT", "outcome": "inactive [at 17.4 µM]"}
{"Compound": "CC(C)c1ccc2c(c1)C(=O)CC1C(C)(C(=O)O)CCCC21C (stereo not given)", "Assay target": "HACAT", "outcome": "inactive"}

Alright, here's another compound for you.
Lookup result for C/C=C/C(=O)OC1/C=C/C(O)C(OC(C)=O)CCC(=O)OC1C (stereo not given) ; measured outcome: inactive

* * *

# Assay target: Guanidinoacetate N-methyltransferase (Homo sapiens)
# Test summary: Confirmatory Screen for Target Class Profiling of Small Molecule Inhibitors of Methyltransferases (AID 1745852); further: on the % scale 0 is the no-effect control and ±100 the full control effect
# Particulars: MTase-Glo luminescence, SAH detection, recombinant enzyme; at 57.3 µM (top of the series) unless noted
Assay readout: activity change, negative = inhibition

Look over these answered cases.
{"Compound": "O=C(O)CC1(O)C(=O)Nc2ccccc21 (stereo not given)", "activity change, negative = inhibition": "0% [at 85.7 µM]"}
{"Compound": "CC(C)=C1CC2C(CCC2(C)O)C(C)(O)CC1=O (stereo not given)", "activity change, negative = inhibition": "0%"}
{"Compound": "CC1(C)C2CCC1(C)C(OC(=O)C(O)(CC(=O)O)CC(=O)O)C2 (stereo not given)", "activity change, negative = inhibition": "0%"}
{"Compound": "COc1ccccc1CN[C@H]1CCCN[C@H]1c1ccccc1", "activity change, negative = inhibition": "7.32%"}

Alright, here's another compound for you.
Lookup result for COc1cc(/C=C/C(=O)OC[C@H]2O[C@@H](OC3OC=C(C(=O)O)C4C(O)CC(C)(O)C34)[C@H](O)[C@@H](O)[C@@H]2O)cc(OC)c1O (stereo not given in full) ; measured activity change, negative = inhibition: -2.09% [at 19.1 µM]

* * *

# Test summary: Primary qHTS for inhibitors of nuclear receptor binding SET domain protein 2 (NSD2) in an isogenic RCH-ACV NSD2 p.E1099K mutant (9B) (AID 1645876); further: nearly all actives have a fitted effect of over 70% in size; on activity change, negative = viability loss: on the % scale 0 is the no-effect control and ±100 the full control effect
# Particulars: RCH-ACV (leukaemia line) NSD2 E1099K (9B) viability, CellTiter-Glo, 72 h; series mostly up to 44.9 µM
Results filed as inconclusive are left out. Calls of active or inactive are those of the source. Calls follow the shape of the dose curve; as a rule, active = well fitted inhibition curve with a large enough effect; inconclusive = small, poorly fitted or top-dose-only effect; inactive = flat fitted curve, though single readings scatter.
Assay readout: activity change, negative = viability loss

Look over these answered cases.
{"Compound": "C=C1CCc2occ(C)c2[C@H]2[C@H]1[C@@]13O[C@@]1(C[C@@H](C)[C@H]3OC(C)=O)[C@H]1O[C@@]21C", "Measured value": "inactive"}
{"Compound": "Cc1ccc(C)c(NC(=O)CNS(=O)(=O)c2ccc3[nH]c(=O)oc3c2)c1", "Measured value": "inactive"}
{"Compound": "CC(=O)OC[C@@]12C(=O)C[C@@H](C)[C@]3(C[C@@H](c4ccoc4)OC3=O)[C@H]1CC[C@H](OC(C)=O)[C@]21CO1", "Measured value": "inactive"}
{"Compound": "CC(C(=O)Nc1cc(C#N)ccc1CCCC(=O)O)c1ccc(F)c2ccccc12 (configuration not stated)", "Measured value": "inactive"}
{"Compound": "CC1=CC(=O)C2C(C)(C)CCC[C@]2(C)[C@H]1CC[C@H](C)CC(=O)O (some centres not stated)", "Measured value": "inactive"}
{"Compound": "CCCO[C@@H]1O[C@H](CO)[C@@H](O)[C@H](O)[C@H]1O[C@@H]1OC[C@@H](O)[C@H](O)[C@H]1O", "Measured value": "inactive"}

Lookup result for O=C(O[C@H]1[C@H](Oc2ccc(O)cc2CO)O[C@H](CO)[C@@H](O)[C@@H]1O)c1ccccc1 ; measured activity change, negative = viability loss: inactive

Lookup result for OCC1OC(Oc2cc(O)cc(/C=C/c3ccc(OC4OC(CO)C(O)C(O)C4O)cc3O)c2)C(O)C(O)C1O (configuration not stated) ; measured activity change, negative = viability loss: inactive

Lookup result for CC1(C)CC[C@]2(C(=O)O[C@@H]3O[C@H](CO)[C@@H](O)[C@H](O)[C@H]3O)CC[C@]3(C)C(=CCC4[C@@]5(C)CC[C@H](O[C@@H]6O[C@H](C(=O)O)[C@@H](O[C@@H]7O[C@H](CO)[C@@H](O)[C@H](O)[C@H]7O)[C@H](O)[C@H]6O[C@@H]6O[C@H](CO)[C@@H](O)[C@H](O)[C@H]6O)C(C)(C)C5CC[C@]43C)C2C1 (some centres not stated) ; measured activity change, negative = viability loss: 4.56% [at 9.23 µM] (inactive)

Lookup result for C[C@@H]1O[C@@H](O[C@H]2[C@@H]3C=CO[C@@H](O[C@@H]4O[C@H](CO)[C@@H](O)[C@H](O)[C@H]4O)[C@@H]3[C@@]3(CO)O[C@@H]23)[C@H](O)[C@H](O)[C@H]1OC(=O)/C=C/c1ccc(O)cc1 ; measured activity change, negative = viability loss: inactive

Lookup result for O=C(/C=C/c1ccc(O)cc1)OC[C@H]1O[C@@H](O/C(=C\c2ccccc2)C(=O)O)[C@H](O)[C@@H](O)[C@@H]1O ; measured activity change, negative = viability loss: inactive

Lookup result for C[C@@H]1O[C@@H](O[C@@H]2[C@@H](O)[C@H](O[C@H]3[C@H](O[C@H]4CC[C@@]5(C)C(CC[C@]6(C)C5CC=C5[C@@H]7CC(C)(C)CC[C@]7(C(=O)O[C@@H]7O[C@H](CO)[C@@H](O)[C@H](O)[C@H]7O)CC[C@]56C)C4(C)C)O[C@H](C(=O)O)[C@@H](O)[C@@H]3O)OC[C@H]2O)[C@H](O)[C@H](O)[C@H]1O (some centres not stated) ; measured activity change, negative = viability loss: 2.27% [at 9.23 µM] (inactive)
